Could you please report measured Melting temperature (Tm) shift for the items listed next?
Target: CHK2 Catalytic Domain (Homo sapiens)
Construct: For all of them, we expressed and purified the catalytic domain separately; His-tag; made in house; host or cells: Escherichia coli
Assay: Differential Scanning Fluorimetry (DSF) Tm shift
Type: binding
Conditions: 2 µM protein, 10 µM inhibitor, average of 3 experiments, each in duplicate

Task: Please give the documented Melting temperature (Tm) shift of Cn1cc(/C=C2\C(=O)Nc3ccc(S(N)(=O)=O)cc32)c2ccccc21
Output: 5.2 degrees Celcius

Task: Please give the documented Melting temperature (Tm) shift of CN(C)CCCn1cc(C2=C(c3c[nH]c4ccccc34)C(=O)NC2=O)c2ccccc21 [Bisindolylmaleimide I]
Output: 4.6 degrees Celcius

Task: Please give the documented Melting temperature (Tm) shift of CN(C)c1nc2c(Br)c(Br)c(Br)c(Br)c2[nH]1
Output: 0.3 degrees Celcius

Task: Please give the documented Melting temperature (Tm) shift of COc1cc2ncnc(Nc3ccc(OCc4ccccc4)cc3)c2cc1OC
Output: 11.2 degrees Celcius

Task: Please give the documented Melting temperature (Tm) shift of Cl.Cl.O=S(=O)(NCCNC/C=C/c1ccc(Br)cc1)c1cccc2cnccc12 [H-89, Dihydrochloride]
Output: 0.5 degrees Celcius

Task: Please give the documented Melting temperature (Tm) shift of O=C(Nc1cccc(Nc2nccc(Nc3cccc(C(F)(F)F)c3)n2)c1)C1CC1
Output: 0.4 degrees Celcius

Task: Please give the documented Melting temperature (Tm) shift of CC(C)n1cnc2c(Nc3cccc(Cl)c3)nc(NCCO)nc21
Output: 1.1 degrees Celcius

Task: Please give the documented Melting temperature (Tm) shift of CC(C)c1nn(-c2c(Cl)cccc2Cl)c2nc(Cc3ccc(OCCO)cc3)[nH]c(=O)c12
Output: 0.6 degrees Celcius

----------
Biological target: CHK2 Catalytic Domain (Homo sapiens, UniProt O96017)
Construct: For all of them, we expressed and purified the catalytic domain separately; His-tag; made in house; host or cells: Escherichia coli
Sequence (O96017 220-486 limits assumed): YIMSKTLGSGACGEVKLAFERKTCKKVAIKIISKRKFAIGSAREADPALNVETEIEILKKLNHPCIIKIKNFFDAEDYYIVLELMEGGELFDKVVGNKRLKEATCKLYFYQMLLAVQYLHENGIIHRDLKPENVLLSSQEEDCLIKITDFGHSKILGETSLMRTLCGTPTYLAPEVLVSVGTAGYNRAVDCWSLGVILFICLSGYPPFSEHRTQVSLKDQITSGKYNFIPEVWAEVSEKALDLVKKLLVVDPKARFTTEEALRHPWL
Assay: Differential Scanning Fluorimetry (DSF) Tm shift
Assay type: binding
Details: 2 µM protein, 10 µM inhibitor, average of 3 experiments, each in duplicate
param class (str): category from Melting temperature (Tm) shift; see ranges low-valued (below 2 degrees Celcius), mid-valued (2 degrees Celcius to below 4 degrees Celcius), high-valued (4 degrees Celcius or more)

Task: In plain terms, what class is O=C1NC(=O)C(=Cc2ccc(-c3ccc(F)cc3O)o2)S1 ?
Output: mid-valued

Task: In plain terms, what class is Cl.NCCCn1cc(C2=C(c3c[nH]c4ccccc34)C(=O)NC2=O)c2ccccc21 [Bisindolylmaleimide III, Hydrochloride] ?
Output: high-valued

Task: In plain terms, what class is CC[C@@H](CO)Nc1nc(NCc2ccccc2)c2ncn(C(C)C)c2n1 (single isomer, unassigned) [Roscovitine, (S)-Isomer] ?
Output: low-valued

Task: In plain terms, what class is c1nc2nc(Nc3ccc(N4CCOCC4)cc3)nc(NC3CCCCC3)c2[nH]1 ?
Output: high-valued

Task: In plain terms, what class is Cc1nc(N)sc1-c1ccnc(Nc2cccc([N+](=O)[O-])c2)n1 ?
Output: low-valued

Task: In plain terms, what class is CC(C)n1cnc2c(NCc3ccccc3O)nc(NCCCO)nc21 ?
Output: low-valued

Task: In plain terms, what class is CCN1/C(=C/C(C)=O)Sc2ccc(OC)cc21 ?
Output: low-valued

Task: In plain terms, what class is Cl.Cl.NCCNc1ncc(C(N)=O)c(Nc2cccc(C(F)(F)F)c2)n1 ?
Output: high-valued

Task: In plain terms, what class is O=C(c1ccc(Nc2nccc(-c3cc4ccccc4s3)n2)cc1)N1CCC(N2CCCC2)CC1 ?
Output: low-valued

Task: In plain terms, what class is O=C1c2ccccc2-c2n[nH]c3cccc1c23 ?
Output: high-valued

Task: In plain terms, what class is COc1cc2nccc(Oc3ccc(NC(=S)NC(=O)c4ccccc4C)cc3)c2cc1OC ?
Output: high-valued

Task: In plain terms, what class is O=c1c(O)c(-c2ccc(O)c(O)c2)oc2cc(O)c(O)c(O)c12 ?
Output: low-valued

Task: In plain terms, what class is NC(=O)Nc1sc(-c2ccc(F)cc2)cc1C(N)=O ?
Output: mid-valued

Task: In plain terms, what class is CC(C)(C)c1nc2c3cc[nH]c(=O)c3c3cc(F)ccc3c2[nH]1 ?
Output: high-valued

Task: In plain terms, what class is COc1ccc2c(c1)c1c3c(c4c5ccccc5n(C)c4c1n2CC(O)CN(C)C)C(=O)NC3=O.Cl (centres unmarked) [Gö 7874, Hydrochloride] ?
Output: low-valued

Task: In plain terms, what class is CCCCc1c(-c2ccc(O)cc2)[nH]c2nccnc12 ?
Output: mid-valued

Task: In plain terms, what class is N#Cc1c(-c2ccccc2)cc(-c2cc(Br)ccc2O)[nH]c1=O ?
Output: low-valued

Task: In plain terms, what class is CCN(CC)CCNC(=O)c1c(C)[nH]c(/C=C2\C(=O)Nc3ccc(Cl)cc32)c1C ?
Output: high-valued

Task: In plain terms, what class is O=C1NC(=O)/C(=C/c2ccc3nccnc3c2)S1 ?
Output: low-valued

Task: In plain terms, what class is COc1ccc2c(c1)c(C1=C(c3c[nH]c4ccccc34)C(=O)NC1=O)cn2CCCN(C)C ?
Output: high-valued

Task: In plain terms, what class is CS(=O)(=O)O.Cn1cc(C2=C(c3cn(CCCSC(=N)N)c4ccccc34)C(=O)NC2=O)c2ccccc21 ?
Output: high-valued

Task: In plain terms, what class is Brc1c(Br)c(Br)c2n[nH]nc2c1Br ?
Output: mid-valued

Task: In plain terms, what class is CCCCn1c2ccc(O)cc2c2c3c(c(-c4ccccc4Cl)cc21)C(=O)NC3=O ?
Output: low-valued

Task: In plain terms, what class is CC(C)[C@H](CO)Nc1nc(Nc2cccc(Cl)c2)c2ncn(C(C)C)c2n1 ?
Output: low-valued

Task: In plain terms, what class is Cc1cc(Nc2nc(-c3ccccc3)nc3ccccc23)n[nH]1 ?
Output: low-valued

Task: In plain terms, what class is O=C1Nc2ccccc2C1=C1Nc2ccccc2C1=NOCCC(O)CO (centres unmarked) ?
Output: mid-valued

Task: In plain terms, what class is N#CCCc1ccc2c(c1)-c1[nH]c3ccc([N+](=O)[O-])cc3c1CC(=O)N2 ?
Output: low-valued

Task: In plain terms, what class is Nc1cccc(-c2cc3c(Oc4cccc(O)c4)ncnc3[nH]2)c1 ?
Output: mid-valued

Task: In plain terms, what class is CCn1cnc2c(Nc3cccc(Cl)c3)nc(N[C@H]3CCCC[C@H]3N)nc21 [Cdk1 Inhibitor, CGP74514A] ?
Output: low-valued

Task: In plain terms, what class is c1cc(-c2cnn3cc(-c4ccc(OCCN5CCCCC5)cc4)cnc23)ccn1 ?
Output: low-valued

----------
Molecular target: FES Catalytic Domain+SH2 (Homo sapiens)
Construct: for 8, we also made a longer version containing one or more additional domains; His-tag; made in house; host or cells: Escherichia coli
Sequence (P07332 448-822 limits assumed): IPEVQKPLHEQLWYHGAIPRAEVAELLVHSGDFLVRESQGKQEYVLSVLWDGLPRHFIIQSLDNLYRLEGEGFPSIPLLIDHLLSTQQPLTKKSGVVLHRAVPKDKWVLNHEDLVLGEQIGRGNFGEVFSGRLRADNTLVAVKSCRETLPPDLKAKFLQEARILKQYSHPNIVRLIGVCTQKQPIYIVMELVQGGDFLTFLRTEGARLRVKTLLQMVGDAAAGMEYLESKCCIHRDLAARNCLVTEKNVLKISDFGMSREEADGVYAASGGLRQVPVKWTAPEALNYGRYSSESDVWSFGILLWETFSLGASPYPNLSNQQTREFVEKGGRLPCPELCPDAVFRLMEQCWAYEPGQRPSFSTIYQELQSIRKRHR
Assay: Differential Scanning Fluorimetry (DSF) Tm shift
Type: binding
Conditions: 2 µM protein, 10 µM inhibitor, average of 3 experiments, each in duplicate
Outcome: Yes for Melting temperature (Tm) shift of at least 0.5 degrees Celcius; No for anything lower.

Task: Confirm if Melting temperature (Tm) shift reported for the molecule CC(=O)O/N=C1/C(=C2/C(=O)Nc3cc(Br)ccc32)Nc2ccccc21 is 0.5 degrees Celcius or above.
Output: No

Task: Confirm if Melting temperature (Tm) shift reported for the molecule CCN(CC)CCNC(=O)c1c(C)[nH]c(/C=C2\C(=O)Nc3ccc(Cl)cc32)c1C is 0.5 degrees Celcius or above.
Output: Yes

Task: Confirm if Melting temperature (Tm) shift reported for the molecule COc1cc2ncnc(Nc3ccc(OCc4ccccc4)cc3)c2cc1OC is 0.5 degrees Celcius or above.
Output: No

Task: Confirm if Melting temperature (Tm) shift reported for the molecule NC(=O)Nc1cc(-c2ccccc2)sc1C(N)=O is 0.5 degrees Celcius or above.
Output: Yes

Task: Confirm if Melting temperature (Tm) shift reported for the molecule Cc1ccc([N+](=O)[O-])cc1S(=O)(=O)N(C)N=Cc1cnc2ccc(Br)cn12.Cl.O.O is 0.5 degrees Celcius or above.
Output: Yes

Task: Confirm if Melting temperature (Tm) shift reported for the molecule COc1cc2ncnc(Nc3ccc(Cl)cc3Cl)c2cc1OC is 0.5 degrees Celcius or above.
Output: No

Task: Confirm if Melting temperature (Tm) shift reported for the molecule Cc1[nH]c(/C=C2\C(=O)Nc3ccc(S(=O)(=O)N(C)c4cccc(Cl)c4)cc32)c(C)c1C(=O)N1CCN(C)CC1 is 0.5 degrees Celcius or above.
Output: No

Task: Confirm if Melting temperature (Tm) shift reported for the molecule N#CC(c1ccnc(NCCc2cccnc2)n1)c1nc2ccccc2s1 (centres unmarked) is 0.5 degrees Celcius or above.
Output: No

Task: Confirm if Melting temperature (Tm) shift reported for the molecule O=C1Nc2ccc3ncsc3c2/C1=C/c1cnc[nH]1 is 0.5 degrees Celcius or above.
Output: Yes

Task: Confirm if Melting temperature (Tm) shift reported for the molecule CS(=O)(=O)O.Cn1cc(C2=C(c3cn(CCCSC(=N)N)c4ccccc34)C(=O)NC2=O)c2ccccc21 is 0.5 degrees Celcius or above.
Output: Yes

Task: Confirm if Melting temperature (Tm) shift reported for the molecule CC(C)c1nn(-c2c(Cl)cccc2Cl)c2nc(Cc3ccc(OCCO)cc3)[nH]c(=O)c12 is 0.5 degrees Celcius or above.
Output: No

Task: Confirm if Melting temperature (Tm) shift reported for the molecule O=c1c(O)c(-c2ccc(O)c(O)c2)oc2cc(O)c(O)c(O)c12 is 0.5 degrees Celcius or above.
Output: No

Task: Confirm if Melting temperature (Tm) shift reported for the molecule Nc1cccc(-c2cc3c(Oc4cccc(O)c4)ncnc3[nH]2)c1 is 0.5 degrees Celcius or above.
Output: Yes

Task: Confirm if Melting temperature (Tm) shift reported for the molecule O=C1Nc2ccccc2C1=C1Nc2ccccc2C1=NOCCC(O)CO (centres unmarked) is 0.5 degrees Celcius or above.
Output: Yes

Task: Confirm if Melting temperature (Tm) shift reported for the molecule CC(C)[C@H](CO)Nc1nc(Nc2cccc(Cl)c2)c2ncn(C(C)C)c2n1 is 0.5 degrees Celcius or above.
Output: No

Task: Confirm if Melting temperature (Tm) shift reported for the molecule CCCCn1c2ccc(O)cc2c2c3c(c(-c4ccccc4Cl)cc21)C(=O)NC3=O is 0.5 degrees Celcius or above.
Output: No

Task: Confirm if Melting temperature (Tm) shift reported for the molecule O=C1NC(=O)C(=Cc2cccc(C(F)(F)F)c2)S1 is 0.5 degrees Celcius or above.
Output: No

Task: Confirm if Melting temperature (Tm) shift reported for the molecule O=C1Cc2c([nH]c3ccc([N+](=O)[O-])cc23)-c2ccccc2N1 is 0.5 degrees Celcius or above.
Output: No

Task: Confirm if Melting temperature (Tm) shift reported for the molecule COc1ccc2c(c1)c(C1=C(c3c[nH]c4ccccc34)C(=O)NC1=O)cn2CCCN(C)C is 0.5 degrees Celcius or above.
Output: Yes

Task: Confirm if Melting temperature (Tm) shift reported for the molecule COc1ccc2c(c1)c1c3c(c4c5ccccc5n(C)c4c1n2CC(O)CN(C)C)C(=O)NC3=O.Cl (centres unmarked) [Gö 7874, Hydrochloride] is 0.5 degrees Celcius or above.
Output: No

Task: Confirm if Melting temperature (Tm) shift reported for the molecule CCn1cnc2c(Nc3cccc(Cl)c3)nc(N[C@H]3CCCC[C@H]3N)nc21 [Cdk1 Inhibitor, CGP74514A] is 0.5 degrees Celcius or above.
Output: Yes

Task: Confirm if Melting temperature (Tm) shift reported for the molecule O=C1NC(=O)/C(=C/c2ccc3nccnc3c2)S1 is 0.5 degrees Celcius or above.
Output: No

Task: Confirm if Melting temperature (Tm) shift reported for the molecule c1nc2nc(Nc3ccc(N4CCOCC4)cc3)nc(NC3CCCCC3)c2[nH]1 is 0.5 degrees Celcius or above.
Output: Yes

Task: Confirm if Melting temperature (Tm) shift reported for the molecule CC(C)(C)c1nc2c3cc[nH]c(=O)c3c3cc(F)ccc3c2[nH]1 is 0.5 degrees Celcius or above.
Output: No

Task: Confirm if Melting temperature (Tm) shift reported for the molecule O=C1c2ccccc2-[n+]2ccc3c([nH]c4ccccc43)c21 [Fascaplysin, Synthetic, Fascaplysin] is 0.5 degrees Celcius or above.
Output: No

Task: Confirm if Melting temperature (Tm) shift reported for the molecule CC[C@@H](CO)Nc1nc(NCc2ccccc2)c2ncn(C(C)C)c2n1 (single isomer, unassigned) [Roscovitine, (S)-Isomer] is 0.5 degrees Celcius or above.
Output: Yes

Task: Confirm if Melting temperature (Tm) shift reported for the molecule N#Cc1c(-c2ccccc2)cc(-c2cc(Br)ccc2O)[nH]c1=O is 0.5 degrees Celcius or above.
Output: No

Task: Confirm if Melting temperature (Tm) shift reported for the molecule O=C1NC(=O)C(c2c[nH]c3ccccc23)=C1c1c[nH]c2ccccc12 [Bisindolylmaleimide IV] is 0.5 degrees Celcius or above.
Output: Yes

Task: Confirm if Melting temperature (Tm) shift reported for the molecule COc1cc2ncnc(Nc3ccc(NC(=O)c4ccccc4)cc3)c2cc1OC is 0.5 degrees Celcius or above.
Output: No

Task: Confirm if Melting temperature (Tm) shift reported for the molecule COc1cc2nccc(Oc3ccc(NC(=S)NC(=O)c4ccccc4C)cc3)c2cc1OC is 0.5 degrees Celcius or above.
Output: Yes
